Assay: in vitro
Conditions: human, hela cells, % viability

Molecule	Unit String	viability at 28.5 h, 10 µM
COc1coc(CN2C(=O)COc3cccnc32)cc1=O	%	96.7
Cn1c(=O)c2c(nc(NCc3ccccc3)n2C)n(C)c1=O	%	95.9
COc1cc(-c2cnc(N)c(NCC(C)(C)CO)n2)cc(OC)c1OC	%	92.2
Cn1nccc1NS(=O)(=O)c1cc(C(F)(F)F)cc(C(F)(F)F)c1	%	92.6
COc1cc(OC)c(OC)cc1CN1CCN(Cc2ccco2)CC1 [CBK074509G]	%	92.9
COc1ccc(-c2c(O)n[nH]c2CCC2CCCC2)cc1	%	88.1
Cc1ccccc1C(=O)N1C2CCC1CC(O)(Cn1ccnc1C)C2 (centres unmarked)	%	90.1
O=C(O)CC(NC(=O)c1ccco1)c1ccc(F)cc1 (centres unmarked)	%	107
COc1cccc(C(=O)NCCC(=O)N2CCc3ccccc3C2)c1	%	84.3
Cc1ccccc1C(NC(=O)C1CCN(C(=O)NCCc2ccccc2)CC1)c1ncccc1C (centres unmarked)	%	91
CCNC(=O)NC[C@H]1C[C@@H]2CCN1C[C@@H]2c1cc(-c2ccccc2)nc(C)n1	%	116
O=C(O)c1ccc(-c2n[nH]c(=O)c3c2CCCC3)cc1	%	93.6
Cc1ccc2nc(NC3=NC(CC(=O)O)C(=O)N3)nc(C)c2c1 (centres unmarked)	%	90.3
N#Cc1ccc(C(=O)Nc2ccc3n(c2=O)C[C@H]2C[C@@H]3CN(C(=O)c3ccccc3)C2)cc1	%	109
O=C(O)CCCC(=O)Nc1ccccc1C(=O)NCc1ccco1	%	85.8
CCCC/C=C/c1cc(NCCc2ccccn2)n2nccc2n1	%	96.5
Cc1cc(C2CCCCCN2S(=O)(=O)c2ccc3[nH]c(=O)[nH]c(=O)c3c2)no1 (centres unmarked)	%	94.2
COc1ccc(-c2cc(NC3CCCCC3)ncn2)cc1	%	96.8
CN(Cc1ccccc1)S(=O)(=O)c1ccc(OCC(=O)O)cc1	%	97.9
COc1cc(C(=O)N/C(=C\c2ccc(O)cc2)C(=O)O)cc(OC)c1OC	%	86.2
Cc1cc(Cl)c(S(=O)(=O)N2CC(C)OC(C)C2)cc1OCC(N)=O (centres unmarked)	%	109
COc1cc(NC(=S)NCc2ccc(S(N)(=O)=O)cc2)cc(OC)c1	%	108
O=S(=O)(c1ccccc1)c1ccccc1C(F)(F)F	%	104
CC(C)(O)c1cc(CC2(NCc3ccc(Cl)cc3)COC2)no1	%	80.1
O=C1CC(NCC2CCCO2)C(=O)N1c1ccc(N2C(=O)CC(NCC3CCCO3)C2=O)cc1 (centres unmarked)	%	89.9
Nc1ccc(C(=O)Nc2ccc(Nc3cc(-c4ccco4)ncn3)cc2)cc1	%	96.5
COCCN1C(=O)C2(CC(=O)N(CCCN3C(=O)CCC3=O)C2=O)c2ccccc21 (centres unmarked)	%	117
COCC1CCN(c2c(F)cc(C#N)cc2F)CC1	%	104
O=C(Nc1ccc(Cl)cc1)N1CCN(c2ccccc2)CC1	%	101
CCOc1cccc(-c2cn3ccnc3c(Nc3ccc(Cl)cc3)n2)c1	%	92.1
CNC(=S)N(Cc1ccc(S(N)(=O)=O)cc1)C1CC(=O)N(c2ccc(OC)cc2)C1=O (centres unmarked)	%	95.1
COc1ccc(OCCCN2C(=O)C3(CC(=O)N(Cc4ccccc4)C3=O)c3cc(OC)ccc32)cc1 (centres unmarked)	%	106
CCCC/C=C/c1nccnc1NCc1ccc2c(c1)OCO2	%	98.1
O=S(=O)(N[C@H]1CO[C@H]2[C@@H]1OC[C@@H]2n1cc(-c2ccccn2)nn1)c1cccs1	%	88.7
Cc1nc(C)c(C(=O)N2Cc3ccccc3C2)s1	%	95.9
O=C(NCCc1ccco1)c1ncoc1-c1ccc(F)cc1	%	104
c1ccc(Oc2ccc(Nc3cccc(-c4ccc5ccccc5c4)n3)cc2)cc1	%	112
COc1cc(C(=O)Nc2ccc3[nH]ccc3c2)cc(OC)c1OC	%	92.9

* * *

Assay: in vitro
Conditions: human, hela cells, % viability

Compound	viability at 28.5 h, 10 µM [%]
CS(=O)(=O)c1ccc(-n2cc(-c3cccnc3)nn2)cc1 [CBK113061]	104
Cc1cc(NCn2nnc3ccccc32)ccc1Br [CBK057031]	88.2
FC(F)(F)c1ccc(N2CCNCC2)nc1SCc1ccccc1Cl [CBK003964A]	98.2
CCOC(=O)c1nc(N)oc1C [CBK056636]	85.3
CCCCN(C)S(=O)(=O)NCCc1cn2ccccc2n1 [CBK304543]	101
CCCn1c(SCc2csc(COc3ccc(Cl)cc3)n2)n[nH]c1=O [CBK295140]	82.3
OCc1nnn(-c2ccncc2)c1CO [CBK288549]	96.8
CCN1CCN(Cc2ccccc2[N+](=O)[O-])CC1 [CBK261561]	109
CNC(=O)C1(Cc2ccccc2-c2cccs2)CCN(C(=O)CCc2ccccc2)CC1 [CBK285900]	108
O=C(NCc1cccs1)C1CCCN1c1nc(O)cc(C(F)(F)F)n1 (centres unmarked) [CBK004299]	91.3
Cc1cc(NC(=O)c2cc(C)[nH]n2)c2ccccc2n1 [CBK116260]	98.5
c1cc2c(cc1CNc1nnn[nH]1)OCO2 [CBK018783]	91.5
O=C(CN1C(=O)[C@H]2CCCN2C(=O)c2ccccc21)Nc1ccccc1-c1ccccc1 [CBK286321]	93.9
COc1ccc(/C=C2/SC(=O)N(CCNC3=NS(=O)(=O)c4ccccc43)C2=O)cc1 [CBK265545]	83.4
CCCNC(=O)c1ccc(C)c(NC(=O)N[C@@H](CO)c2ccccc2)c1 [CBK306609]	96.2
CCC12CN3CC(CC)(CN(C1)C3c1c(C)[nH]c3ccccc13)C2=O (centres unmarked) [CBK265547]	89.4
NS(=O)(=O)c1ccc(CCNC(=O)c2ccc(-c3ccccc3)nc2NCCc2ccccn2)cc1 [CBK076616]	111
COCCNC(=O)c1cc(C2CN(CCc3ccccc3)CCO2)nc2ccccc12 (centres unmarked) [CBK285622]	99.4
CC1CCN(S(=O)(=O)c2cccc(C(=O)NNC(=O)c3ccco3)c2)CC1 [CBK266796]	92.2
CCOC(=O)c1c(C)nc(-c2ccccc2)nc1NC(=O)C(C)C [CBK028118]	90.1

* * *

Test: in vitro
Conditions: human, hela cells, % viability
Field: label. Allowed values: Yes (viability at 28.5 h, 10 µM < 90%) or No (viability at 28.5 h, 10 µM >= 90%).

Molecule	Answer Label
COc1ccc(N2C(=S)N(Cc3cccs3)[C@H]3[C@@H](O)[C@H](O)C[C@@H](C(N)=O)[C@H]32)cc1	No
c1ccc(C(Oc2nccnc2-c2cccs2)c2ccccc2)cc1	No
CCC(Sc1nc2ccc(F)cc2[nH]1)C(=O)O (centres unmarked)	No
CCNC(=O)c1ccc(-c2ccc(OC(F)(F)F)cc2)nc1	No
NS(=O)(=O)c1ccc(NC(=O)CCSc2ccc(Cl)cc2)cc1	No
COC(=O)Cn1c(CN2CCN(c3ccccc3F)CC2)nc2c1c(=O)n(C)c(=O)n2C	No
COc1ccc(NC(=O)N2CC[C@H]3CC(=O)N(CCN4CCNC4=O)CC[C@H]3C2)cc1	Yes
COc1ccc(C=Cc2cc(C(=O)O)c3ccccc3n2)cc1OC(F)F	Yes
COc1cccc(C(=O)NCCC(=O)N2CCc3c(nc[nH]c3=O)C2)c1	No
O=c1c2sccc2[nH]c(=S)n1CCc1ccccc1	No
Cc1cc2[nH]c(=O)oc2cc1S(=O)(=O)NCCN1CCCCC1CO (centres unmarked)	Yes
O=c1cc(CN2CCOCC2)oc2c(OCc3nnnn3C3CC3)cccc12	No
Cc1ccc(-c2csc3ncn(Cc4ccccc4C)c(=O)c23)cc1C	No
CCCCNS(=O)(=O)c1ccc(OCC(=O)O)cc1	No
O=C(Nc1cccc(C(=O)O)c1)/C(=C\c1ccc2c(c1)OCO2)NC(=O)c1ccccc1Cl	No
CCC1C(=O)N=C(SCC(=O)Nc2ncccn2)NC1=O (centres unmarked)	No
Cc1oc2ccc(NS(=O)(=O)c3ccccc3)cc2c1C(=O)O	No
COc1cc(CN2CCN(Cc3ccccc3F)CC2)cc(OC)c1O	No
Cc1ccc(-c2nnc3sc(-c4cnccn4)nn23)cc1	No
c1ccc(-c2nccnc2NCc2ccco2)cc1	No
COc1cccc(-c2cnc(N)c(N3CCN(CCN(C)C)CC3)n2)c1	No
N#Cc1ccncc1NCc1ccccc1CN1CCCC1CO (centres unmarked)	Yes
CN(C)CCNC(=O)CSc1ccccc1	No
O=[N+]([O-])c1ccc2c(c1)oc1ccc(S(=O)(=O)N3CCCC3)cc12	No
Cc1ccc(N2CC(c3nnc(N)o3)CC2=O)cc1 (centres unmarked)	No
c1ccc(-n2ncc3c(N4CCCC4)ncnc32)cc1	Yes
CC1(C)CN=C(N2CCN(c3c4c(c(C#N)c5nc6ccccc6n35)CCC4)CC2)S1	No
CCCCCNC(=O)C1CCN(Cn2c(=O)oc3cc(Cl)ccc32)CC1	Yes
C=C(C)CNC(=O)c1cc(Br)cnc1N(C)S(C)(=O)=O	No
Cc1ccc(C)c(NS(=O)(=O)c2ccc(NC(=O)c3ccc(CN4CCOCC4)cc3)cc2)c1	No
O=S(=O)(c1ccc(F)c(F)c1F)n1ccc2c(N3CCNCC3)nccc21 [CBK059066C]	No

Cited source: paper PMC12040169
